# experimental target: T1, Clostridium difficile toxin A (TcdA) (Clostridium difficile, UniProt P16154 1-2710)
# T1 construct: mature; also called full-length TcdA
# T1 sequence (P16154 whole entry): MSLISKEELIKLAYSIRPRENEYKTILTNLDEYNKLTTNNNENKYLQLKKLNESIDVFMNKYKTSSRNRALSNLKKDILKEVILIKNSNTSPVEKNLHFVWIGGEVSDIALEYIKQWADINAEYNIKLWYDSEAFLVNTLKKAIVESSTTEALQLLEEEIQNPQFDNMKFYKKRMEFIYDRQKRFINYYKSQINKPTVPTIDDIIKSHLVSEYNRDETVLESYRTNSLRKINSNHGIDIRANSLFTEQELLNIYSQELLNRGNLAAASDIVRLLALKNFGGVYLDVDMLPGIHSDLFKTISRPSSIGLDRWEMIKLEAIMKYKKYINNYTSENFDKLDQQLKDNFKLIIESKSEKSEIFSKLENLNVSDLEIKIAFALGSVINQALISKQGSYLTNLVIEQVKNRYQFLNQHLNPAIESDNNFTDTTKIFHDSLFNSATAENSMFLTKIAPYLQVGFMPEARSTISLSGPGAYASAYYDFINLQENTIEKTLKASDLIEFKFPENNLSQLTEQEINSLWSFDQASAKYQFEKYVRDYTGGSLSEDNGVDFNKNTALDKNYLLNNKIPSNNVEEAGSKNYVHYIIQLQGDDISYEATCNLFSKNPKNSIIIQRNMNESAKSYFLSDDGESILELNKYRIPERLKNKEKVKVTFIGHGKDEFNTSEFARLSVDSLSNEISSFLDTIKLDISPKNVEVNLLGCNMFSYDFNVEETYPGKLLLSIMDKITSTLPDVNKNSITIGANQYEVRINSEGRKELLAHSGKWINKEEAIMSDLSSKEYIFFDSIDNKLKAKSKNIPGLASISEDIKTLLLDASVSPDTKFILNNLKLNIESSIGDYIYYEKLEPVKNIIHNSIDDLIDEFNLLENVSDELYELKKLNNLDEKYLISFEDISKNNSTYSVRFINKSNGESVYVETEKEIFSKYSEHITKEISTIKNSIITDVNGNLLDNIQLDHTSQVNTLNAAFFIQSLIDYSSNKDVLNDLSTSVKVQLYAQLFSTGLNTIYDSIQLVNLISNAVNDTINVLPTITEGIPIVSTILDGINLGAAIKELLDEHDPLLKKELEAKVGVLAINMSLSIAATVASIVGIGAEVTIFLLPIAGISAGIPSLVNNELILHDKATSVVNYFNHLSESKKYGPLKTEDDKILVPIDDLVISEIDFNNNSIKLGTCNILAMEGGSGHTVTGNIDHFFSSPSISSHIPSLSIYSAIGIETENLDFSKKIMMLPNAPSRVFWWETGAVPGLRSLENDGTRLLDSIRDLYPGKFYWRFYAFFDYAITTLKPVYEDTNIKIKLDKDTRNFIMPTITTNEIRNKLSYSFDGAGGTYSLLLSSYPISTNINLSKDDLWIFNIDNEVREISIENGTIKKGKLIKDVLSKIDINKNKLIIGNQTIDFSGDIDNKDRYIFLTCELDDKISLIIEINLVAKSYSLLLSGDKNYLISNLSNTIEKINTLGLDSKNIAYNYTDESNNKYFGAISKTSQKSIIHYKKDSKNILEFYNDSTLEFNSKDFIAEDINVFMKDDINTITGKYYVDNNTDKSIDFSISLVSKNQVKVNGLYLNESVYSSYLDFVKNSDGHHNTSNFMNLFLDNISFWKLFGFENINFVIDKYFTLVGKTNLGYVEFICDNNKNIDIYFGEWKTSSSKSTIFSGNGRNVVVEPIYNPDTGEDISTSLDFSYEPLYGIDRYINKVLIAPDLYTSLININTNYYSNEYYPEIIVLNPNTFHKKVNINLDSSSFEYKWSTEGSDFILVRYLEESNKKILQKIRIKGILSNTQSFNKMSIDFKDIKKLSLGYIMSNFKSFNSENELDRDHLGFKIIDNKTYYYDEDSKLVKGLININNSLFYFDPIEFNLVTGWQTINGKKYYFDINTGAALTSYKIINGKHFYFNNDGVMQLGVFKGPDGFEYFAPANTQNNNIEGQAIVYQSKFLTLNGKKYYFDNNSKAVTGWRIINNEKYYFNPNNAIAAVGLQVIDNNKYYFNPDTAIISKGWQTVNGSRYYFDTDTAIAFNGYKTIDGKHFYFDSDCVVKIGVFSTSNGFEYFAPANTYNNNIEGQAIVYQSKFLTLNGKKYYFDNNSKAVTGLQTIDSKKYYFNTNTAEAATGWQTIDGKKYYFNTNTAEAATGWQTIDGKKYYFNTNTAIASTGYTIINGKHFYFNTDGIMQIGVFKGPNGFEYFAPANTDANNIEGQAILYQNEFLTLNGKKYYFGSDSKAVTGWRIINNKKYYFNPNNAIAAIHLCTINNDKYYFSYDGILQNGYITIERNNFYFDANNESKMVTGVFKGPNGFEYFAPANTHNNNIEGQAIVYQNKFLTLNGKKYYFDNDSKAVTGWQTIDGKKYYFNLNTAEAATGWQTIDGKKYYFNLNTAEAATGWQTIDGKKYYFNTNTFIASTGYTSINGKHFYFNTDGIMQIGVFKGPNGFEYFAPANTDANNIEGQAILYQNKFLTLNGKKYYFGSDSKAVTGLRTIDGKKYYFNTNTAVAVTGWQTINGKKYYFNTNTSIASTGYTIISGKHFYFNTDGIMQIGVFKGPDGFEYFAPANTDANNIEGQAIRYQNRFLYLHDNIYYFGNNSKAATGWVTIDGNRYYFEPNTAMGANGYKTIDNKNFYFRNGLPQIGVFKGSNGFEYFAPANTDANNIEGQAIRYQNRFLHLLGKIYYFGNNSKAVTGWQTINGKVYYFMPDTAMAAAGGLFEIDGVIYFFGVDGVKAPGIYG
# protocol text: SPR (Biacore 3000), VHH over immobilized TcdA; binding free energy difference relative to parent VHH
measured endpoint: ΔΔG (kcal/mol)
Answers are plain numbers, in kcal/mol.

For each of the binders below, state ΔΔG.
1. A26.8 VHH mutant Q106L (VHH, not shown: small tags and cut ends) VHH: QVKLEESGGGLVQAGGSLRLSCAASERTFSRYPVAWFRQAPGAEREFVAVISSTGTSTYYADSVKGRFTISRDNAKVTVYLQMNNLKREDTAVYFCAVNSQRTRLLDPNEYDYWGQGTQVTVSS
2. A26.8-T56I (VHH, not shown: small tags and cut ends) VHH: QVKLEESGGGLVQAGGSLRLSCAASERTFSRYPVAWFRQAPGAEREFVAVISSTGISTYYADSVKGRFTISRDNAKVTVYLQMNNLKREDTAVYFCAVNSQRTRLQDPNEYDYWGQGTQVTVSS

A)
[2.04, -0.19]
